Origin of measurements: PubChem BioAssay AID1996

Reported solubility kinetic values follow for various compounds
- condition context: buffer; pH 7.4; 200.0 µM
endpoint: solubility kinetic (µg/mL)

• Cc1cccc(Nc2nc(-c3ccc(O)c(O)c3)cs2)n1 = 4.5
• Cc1ccc(NC(=S)N2CCCC2)cc1Cl = 12.5
• CC(C)(C)N(Cc1ccccc1)C(=O)COC(=O)c1ccc(N2CCCC2=O)cc1 = 2.5
• Cc1cc(SCc2ccc(C(F)(F)F)cc2)nc(=O)[nH]1 = 7.5
• NC(=Nc1ccccc1)Nc1ccccc1 = 29.5
• Cc1ccc(Nc2c([N+](=O)[O-])c(=O)oc3ccccc23)cc1 = 5.8
• O=C(COC(=O)c1cc(S(=O)(=O)N2CCOCC2)ccc1F)Nc1ccc2c(c1)OCO2 = 54.8
• CSCc1c(C(=O)Nc2ccc3c(c2)OCO3)oc2ccccc12 = 6.4
• CC1CN(c2ccc(Cl)cc2)c2nc3c(c(=O)[nH]c(=O)n3C)n2C1 (stereo not given) = 1.2
• O=C(N1CCCC1)C12CC3CCC(CC(C3)C1)C2 = 28.4
• Cc1ccc(S(=O)(=O)N2CCOCC2)cc1NC(=O)COC(=O)Cc1ccc(Cl)cc1 = 18.7
• Nc1ccc(OCc2ccco2)cc1 = 19.5
